system: TK-10 renal; experiment: NCI-60 one-dose screen, 48 h; conditions: 10 µM unless noted
The panel holds about 83,000 compounds, 20% with a hit somewhere; the sample as a whole holds those more often. Active and inactive are the calls of the source. Rule for the calls: active = growth percent below 10; inactive = the rest.
Valid outcomes are listed here; reply with one: active, inactive

>  <Molecule>
COc1cc(/C=C\c2cc(/C=C\c3ccc(O)c(OC)c3)n(C(=O)Nc3ccc(C(F)(F)F)cc3)n2)ccc1O

>  <Assay system>
TK-10 renal

>  <Group>
inactive

$$$$
>  <Molecule>
CCN(CC)CC(=O)Nc1c(C)ccc(N)c1C

>  <Assay system>
TK-10 renal

>  <Group>
inactive

$$$$
>  <Molecule>
C=CC(=O)N1CN(C(=O)C=C)CN(C(=O)C=C)C1

>  <Assay system>
TK-10 renal

>  <Group>
active

$$$$

Enquiry: Dear colleague, could you share the recorded outcome for `CN(C)CCCn1c(=O)c2cc([N+](=O)[O-])ccc2c2cnc3[nH]ccc3c21` when you have a moment?
Return: inactive

Enquiry: Assay result, entry `COc1ccccc1CNCCCN1C(=O)c2ccc3c4c(ccc(c24)C1=O)C(=O)N(CCCOCCCCOCCCN)C3=O` — outcome?
Return: inactive

Enquiry: Could you check what this test reported for `CCCCCCCCCCCCCCCC1=NC(C)(C)CN1C(C)C` ?
Return: active

====

Listed below: growth values for each entry.
tested on: PC-3 prostate; assay: NCI-60 one-dose screen, 48 h (100 = growth as untreated, 0 = no growth, -100 = all killed); conditions: 10 µM unless noted
This is part of a sample that, as a whole, favours compounds with a hit. Of some 83,000 tested, about 20% had one in any assay. Active and inactive are the calls of the source. Rule for the calls: active = growth percent below 10; inactive = the rest.

Worked cases, answers included:
>  <Compound>
COc1ccccc1/C=N\Nc1ccc([N+](=O)[O-])cn1

>  <Assay system>
PC-3 prostate

>  <growth>
98.8% (inactive)

$$$$
>  <Compound>
CC(=O)Nc1c(Br)cc2c(c1Br)Cc1cc(Br)ccc1-2

>  <Assay system>
PC-3 prostate

>  <growth>
67.8% (inactive)

$$$$
>  <Compound>
C=CCOC(=O)C1=C(C)NC2=C(C(=O)CC(C)(C)C2)C1c1ccc(OC)cc1 (stereo unspecified)

>  <Assay system>
PC-3 prostate

>  <growth>
88.3% (inactive)

$$$$

Enquiry: I am curious: what growth value has been reported for `O=C(Nc1ccccc1)c1cc2ccccc2s1` ?
Return: 82% (inactive)

Enquiry: If you can, please state the reported growth value of `CCCCCCCCN=C(NCCCCCCCC)SCc1cccc2ccccc12` .
Return: -93.2% (active)

Enquiry: So what's the measured growth for this one? `CCOC(=O)c1cc(N)nc2ccccc12`
Return: 104% (inactive)

====

system: UO-31 renal; test: NCI-60 one-dose screen, 48 h (100 = growth as untreated, 0 = no growth, -100 = all killed); conditions: 10 µM unless noted
Compounds without any hit were thinned out: in the full panel of roughly 83,000, 20% have a hit. Active and inactive are the calls of the source. Rule for the calls: active = growth percent below 10; inactive = the rest.
Value kind: growth

Reference set (10 entries):
>  <Compound>
COc1ccc2c(c1)OC1=C(C(=O)OC1)C2c1cc(OC)c2c(c1)OCCO2 (stereo unspecified)

>  <Value kind>
growth

>  <Result>
46.2% (inactive)

$$$$
>  <Compound>
CCN(CC)c1ccc(/C=N/N=C(N)N)cc1

>  <Value kind>
growth

>  <Result>
51.4% (inactive)

$$$$
>  <Compound>
O=c1c2cc(Cl)ccc2oc2ccc(OCCCCCN3CCCCCC3)cc12

>  <Value kind>
growth

>  <Result>
78.6% (inactive)

$$$$
>  <Compound>
COc1ccc(-c2ccc(-c3ccc(C(=N)N)s3)s2)cc1

>  <Value kind>
growth

>  <Result>
-71.4% (active)

$$$$
>  <Compound>
COc1cccc(C2C(C#N)=C(N)Oc3cc4c(cc32)OCO4)c1 (stereo unspecified)

>  <Value kind>
growth

>  <Result>
39.3% (inactive)

$$$$
>  <Compound>
CC1CCCN(CCCCOc2ccc(-c3ccc(C#N)cc3)cc2)C1 (stereo unspecified)

>  <Value kind>
growth

>  <Result>
74.5% (inactive)

$$$$
>  <Compound>
Fc1ccc(-c2cnc3nonc3n2)c(F)c1

>  <Value kind>
growth

>  <Result>
89.1% (inactive)

$$$$
>  <Compound>
CCOC(=O)C1=C(C)NC(=S)NC1c1ccccc1 (stereo unspecified)

>  <Value kind>
growth

>  <Result>
76.4% (inactive)

$$$$
>  <Compound>
O=C1Nc2ccc(Br)cc2/C1=N/c1nc(-c2ccccc2)cs1

>  <Value kind>
growth

>  <Result>
63.9% (inactive)

$$$$
>  <Compound>
CCN(CC)c1cc(C)c(Cc2c(OC)ccc3ccccc23)cc1C

>  <Value kind>
growth

>  <Result>
73.1% (inactive)

$$$$

Enquiry: // lookup growth for CCSCC1CC(O)(c2ccccc2)C(c2ccccc2)C(c2ccc(F)cc2)O1 (stereo unspecified)
Return: -0.34% (active)

Enquiry: Using the record for `Cc1cc(Nc2c3ccccc3nc3ccccc23)ccc1NS(C)(=O)=O` , report its growth.
Return: 22.7% (inactive)

Enquiry: Fill blank: measured growth of the compound `COc1ccc2nc3ccccc3c(NCc3ccc(C)cc3)c2c1` is ____.
Return: 13.4% (inactive)

Enquiry: Requested field: growth. Item: `CNCCCn1c2c(c3ccc(Cl)cc3c1=O)C(=O)c1cc(OC)cnc1-2`
Return: 33.4% (inactive)

Enquiry: Dear colleague, I am looking for the recorded growth of the following compound: `O=C(NCCN1CCCC1)n1cc(-c2ccncc2)c(-c2cc(O)cc(Cl)c2)n1`
Return: 100% (inactive)

Enquiry: # query: growth of entry O=C1OCC2=C1C(c1ccccc1)c1cc3c(cc1N2CCO)OCO3 (stereo unspecified)
Return: 43.9% (inactive)

Enquiry: Entry under review: `Cn1cnc([N+](=O)[O-])c1S(=O)(=O)Oc1cccc2ccccc12` . Reported growth?
Return: -31% (active)

Enquiry: What value of growth has been reported for the following compound? `c1ccc2c(N=NSc3ncnc4nc[nH]c34)c3ccccc3nc2c1`
Return: 4.86% (active)

Enquiry: For the compound shown here, CCCCCCCCOC(=O)C(C)OC(=O)OCCOCCOC(=O)OC(C)C(=O)OCCCCCCCC (stereo unspecified) , give the reported growth.
Return: 87.5% (inactive)

Enquiry: Which growth reading was recorded for the compound `C=C1C(=O)O[C@H]2[C@H]1CC/C(COC(=O)NCc1ccc(Cn3c(=O)sn(CCCl)c3=O)cc1)=C\CC[C@@]1(C)O[C@@H]21` ?
Return: 79.3% (inactive)

Enquiry: Given the entry `Clc1ccc(-c2cnc3c(-c4ccnc(N5CCNCC5)c4)cnn3c2)cc1` , report its measured growth.
Return: -42.6% (active)

====

Here the recorded growth is given for each entry.
system: EKVX NSCLC; experiment: NCI-60 one-dose screen, 48 h (100 = growth as untreated, 0 = no growth, -100 = all killed); conditions: 10 µM unless noted
The panel holds about 83,000 compounds, 20% with a hit somewhere; the sample as a whole holds those more often.
Entry rule: numbers only, all in %.

>  <Smiles data>
CCOC(=O)c1ccc2c(c1)nc(-c1ccc(Cl)cc1)n2-c1cc(C(C)(C)C)[nH]n1

>  <growth, %>
47.6

$$$$

Enquiry: Could you share which growth value was measured for `CN(C)CCCN1c2ccccc2CCc2ccccc21` ?
Return: 107

====

system: CCRF-CEM leukemia; assay: NCI-60 one-dose screen, 48 h (100 = growth as untreated, 0 = no growth, -100 = all killed); settings: 10 µM unless noted
Compounds without any hit were thinned out: in the full panel of roughly 83,000, 20% have a hit. Activity calls are given as the source filed them. The calls were made as follows: active = growth percent below 10; inactive = the rest.
# growth annotations

Enquiry: Which value of growth has been reported for COc1ccc(C(=O)N2N=C(c3ccc(F)cc3)CC2c2cn(-c3ccccc3)nc2-c2ccccc2)cc1 (stereo unspecified) in the records?
Return: 57.1% (inactive)

Enquiry: I am curious: what growth value has been reported for `O=C(c1ccccc1)C(CCc1ccccn1)CCc1ccccn1` ?
Return: 95.3% (inactive)

Enquiry: Which growth value belongs to `Cc1c(C(=O)Nc2ccccc2F)sc2c(=O)[nH]cnc12` ?
Return: 90.4% (inactive)

Enquiry: Request the reported growth associated with `Clc1ccccc1CNc1c2ccccc2nc2ccccc12`
Return: 10.7% (inactive)

Enquiry: Look up growth: `FC(F)(F)c1cc(-c2nnc3n2N=C(Cl)CS3)cc(C(F)(F)F)c1`
Return: 20.5% (inactive)

Enquiry: Name the reported growth value associated with the compound CC(C)(C)c1nn(-c2ccccc2)c2c1C(=O)CSC(c1ccccc1Cl)N2 (stereo unspecified)
Return: 11.4% (inactive)

Enquiry: So what does the record say about growth for `CCN(CC)CCNC(=O)C(F)(F)C(F)(F)C(F)(F)F` ?
Return: 100% (inactive)

Enquiry: Would you mind telling me what growth value was observed for `CCOC(=O)Nc1ccc2nc(Sc3ccc(Cl)cc3)sc2c1` ?
Return: 20.2% (inactive)

Enquiry: // returns reported growth for input `COc1ccc(/C=C/c2nc(NCCCN(C)C)c3ccccc3n2)cc1`
Return: -44.9% (active)
